# test_system: T1, 4H390-AA
# T1 chain: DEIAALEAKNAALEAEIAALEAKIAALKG
# experiment_description: two-hybrid library CCmax;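 further: natural log of median RNA to DNA barcode read ratio; higher means stronger binding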
# measurement_conditions: mean of both orientations
measured_metric: interaction score
I'd appreciate a reply containing only the number, no unit.

binder	measured_metric	number
DKIAALKAKNAALEAKIAALKAEIAALEG [4H2985-AA]	interaction score	1.71

Prompt: Requested read-out: interaction score. Entry: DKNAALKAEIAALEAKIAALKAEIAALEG [4H3625-AA]
Completion: 1.54

Prompt: Requested read-out: interaction score. Entry: DENAALKAKNAALKAEIAALEAEIAALEG [4H1985-AA]
Completion: 1.06

Prompt: Requested read-out: interaction score. Entry: DKNAALEAEIAALEAKNAALKAKIAALKG [4H3134-AA]
Completion: -0.0241

Prompt: Requested read-out: interaction score. Entry: DEIAALEAENAALKAKIAALKAEIAALEG [4H233-AA]
Completion: 2.39

Prompt: Requested read-out: interaction score. Entry: DKIAALKAENAALKAEIAALEAKIAALKG [4H2758-AA]
Completion: 0.895
